# Target Or Test System: H3K4 (1-10aa) K4A (Homo sapiens)
# Measurement Description: ITC
# Measurement Parameters: domain or fragment; chains chain
pKd: −log10 of the molar value.
Reported Metric: pKd

Binder	Quantitative Result
PHD1 finger of KDM5B (residues 306-360), Q9UGL1 306-360 (protein) AVDLYVCLLCGSGNDEDRLLLCDGCDDSYHTFCLIPPLHDVPKGDWRCPKCLAQE	4.80
